Every entry's value here was drawn from ChEMBL document CHEMBL4513216.

- ASSAY_NOTES: Toxicity liver stage against HepG2, at 10uM
- Type: cell-based
- Design: test concentration 10 uM, cell line HepG2-A16-CD81EGFP
- CONDITIONS_USED: human, HepG2-A16-CD81EGFP cells; read-out: INHIBITION
MEASUREMENT_NAME: cytotoxicity at 10 µM (%)

1) CC(C)Nc1ncc(-c2ccncc2)c([C@@H]2CCCO2)n1 ... 10.8
2) O=c1cc(CN(CCO)C2CC2)nc2ccc(Cl)cn12 ... 14.7
3) CC(=O)N1CCC(c2cnc(-c3c(C)n[nH]c3C)cn2)CC1 ... -17.1
4) O=C(NCC1(O)CCOC1)NCC1(c2ccccc2Cl)CC1 (stereo unspecified) ... -45.7
5) CN(Cc1ccccc1)S(=O)(=O)N1C[C@@H](C(=O)O)[C@H](C2CC2)C1 ... -150
6) O=S1(=O)CCCN(Cc2ccccc2OCC(F)(F)F)CC1 ... 9.11
7) c1cncc(-c2nnc([C@H]3CCN(CC4CCCCC4)C3)o2)c1 ... -6.72
8) COCc1nnc(-c2cccc(C(=O)N(C)CC(C)(C)C)c2)o1 ... -11.1
9) O=C(NCCO)C1CN(c2cncnc2)CCO1 (stereo unspecified) ... -29.9
10) CC(C)COCCNC(=O)NC1CCCN(c2cnn(C)c2)C1 (stereo unspecified) ... 9.39
11) CCn1c(CC2CCNCC2)nn(Cc2ccc(C(=O)NC)o2)c1=O ... 9.17

====

Item-by-item account of cytotoxicity at 10 µM
- ASSAY_NOTES: Toxicity liver stage against HepG2, at 10uM
- Format: cell-based
- Parameters: test concentration 10 uM, cell line HepG2-A16-CD81EGFP
- CONDITIONS_USED: human, HepG2-A16-CD81EGFP cells; read-out: INHIBITION
MEASUREMENT_NAME: cytotoxicity at 10 µM

1. O=C(NC[C@H]1COCc2nc3cc(F)ccc3n21)c1cccnc1 ... -1.23%
2. O=C(NCc1nn(-c2ccccc2)c2c1CCC2)C1CC1 ... -8.36%
3. O=S(=O)(c1ccc2c(c1)OCCO2)N1CCc2ccccc2C1 ... -5.52%
4. COCCOc1ccc(Cl)c(C(=O)N2CCN(CCO)CC2)n1 ... -4.33%
5. Cc1cc(C)n(CC(C)NC(=O)C(C)(C)c2ccccc2F)n1 (stereo unspecified) ... -2.58%
6. CC(C)c1noc(CN(Cc2ccccc2F)C2CC2)n1 ... -7.96%
7. CCN1CCN(S(=O)(=O)c2ncn(C)c2Cl)CC1 ... 20.9%
8. CS(=O)(=O)N1CCCC(Cc2cnc(Br)cn2)CC1 (stereo unspecified) ... -2.46%
9. CN(C)CCN1CC[C@@H]2[C@@H]1CCN2C(=O)c1cccc(Cl)c1 ... -84%
10. O=S(=O)(CCN1CCOC(Cn2cccn2)C1)C(F)(F)F (stereo unspecified) ... 3.78%
11. COCC(=O)N1CCC(c2cc3n(n2)[C@@H](C(F)(F)F)C[C@@H](C)N3)CC1 ... -26.5%

====

cytotoxicity at 10 µM reference
- ASSAY_NOTES: Toxicity liver stage against HepG2, at 10uM
- Type: cell-based
- Set-up: test concentration 10 uM, cell line HepG2-A16-CD81EGFP
- CONDITIONS_USED: human, HepG2-A16-CD81EGFP cells; read-out: INHIBITION
MEASUREMENT_NAME: cytotoxicity at 10 µM (%)

1. CC(=O)N1CCN(CCNS(=O)(=O)c2ccc(C)c(F)c2)CC1 ... -1.84
2. CCOc1ccc(C(=O)N2C[C@@H]3CC[C@H]2CN(C(=O)C2CCC2)C3)cc1 ... -4.68
3. COc1ccc(OCCc2cc(C3CCN(CC(C)C)C3)n[nH]2)cc1 (stereo unspecified) ... 1.97
4. CC(=O)N1CCN(C(=O)CN2CCCC2Cn2nc(C)cc2C)CC1 (stereo unspecified) ... -12.2
5. Cc1nc(CNc2cccc(Cl)c2Cl)cs1 ... 11.4
6. Cc1ccc(C(F)(F)F)cc1C(=O)N[C@H]1CN(CCO)C[C@@H]1C1CC1 ... 0.292
7. Cc1nn(Cn2ccc(C(=O)N3CCCC3)n2)c(C)c1Cl ... 0.748
8. COc1c(F)ccc(C(=O)N2CC[C@H](CO)[C@@H](O)C2)c1F ... -3.85
9. Cc1noc(-c2ccc(N(C)Cc3nccs3)nc2)n1 ... 9
10. COc1ccc2nnc(CCCC(=O)Nc3nc4c(s3)CCC4)n2n1 ... -5.01
11. OCc1ccncc1NCc1cnc(-c2ccccn2)s1 ... -17.4

====

cytotoxicity at 10 µM: recorded values
- ASSAY_NOTES: Toxicity liver stage against HepG2, at 10uM
- Assay type: cell-based
- Set-up: test concentration 10 uM, cell line HepG2-A16-CD81EGFP
- CONDITIONS_USED: human, HepG2-A16-CD81EGFP cells; read-out: INHIBITION
MEASUREMENT_NAME: cytotoxicity at 10 µM (%)

1. CN1C(=O)CO[C@H](c2ccc(NC(=O)c3cccnc3)cc2)[C@H]1CO ... 6.15
2. CC(Sc1nncn1C)C(=O)NCCCOc1ccc(F)cc1 (stereo unspecified) ... -49.2
3. CNC(=O)Cc1ccc(-n2ccnc2-c2ccc(C(=O)O)s2)cc1 ... -1.53
4. COCc1ncc(CN(Cc2ccco2)C(C)C(C)C)cn1 (stereo unspecified) ... -0.0832
5. CN1CCN(C(=O)N2CCC3(CCCN(C4CCOCC4)C3=O)C2)CC1 (stereo unspecified) ... -129
6. COc1ccc(C2CN(c3ncccn3)CCN2C(C)=O)cc1 (stereo unspecified) ... 5.27
7. CCN(CC)c1ncccc1CNC(=O)c1cnn(CC)c1 ... -8.2
8. CN(C(=O)c1ccncc1)c1nnc(C2CCOC2)s1 (stereo unspecified) ... 3.57
9. Cc1cc2nccc(C3CCCN(C(=O)c4cnccn4)C3)n2n1 (stereo unspecified) ... 10.5
10. CCCc1cc(=O)[nH]c2nnc(SCC(=O)NCc3ccc(C)cc3)n12 ... -15.7
11. O=S(=O)(CCCS(=O)(=O)c1ccc2c(c1)OCCCO2)c1ccccc1 ... -2.76

====

- ASSAY_NOTES: Toxicity liver stage against HepG2, at 10uM
- Format: cell-based
- Design: test concentration 10 uM, cell line HepG2-A16-CD81EGFP
- CONDITIONS_USED: human, HepG2-A16-CD81EGFP cells; read-out: INHIBITION
MEASUREMENT_NAME: cytotoxicity at 10 µM (%)

1. O=C(c1ccoc1)N1CCC2(CC1)C(=O)N(CC1CC1)c1ccccc12 ... 10.7
2. CC(C)Oc1ccc2c(NC(=O)CN(C)C)nn(CC(F)(F)F)c2c1 ... 1.6
3. Cc1cccc(CN2C[C@@H](CN3CCCN(C)CC3)C[C@H](CO)C2)n1 ... 2.04
4. Nc1cccc(-c2cccc3ccnn23)n1 ... -5.74
5. OC1(CN2CCCC2)COCCN(c2ncnc3[nH]ccc23)C1 (stereo not drawn) ... 10.7
6. CC(OCC(F)(F)F)C(=O)NCc1ccc(-n2cncn2)nc1 (stereo not drawn) ... -2.55
7. CCOC(=O)COc1nc(CC(C)C)c2c(c1C#N)CCC2 ... -5.72
8. CC(C)N(CC(C)(C)O)C(=O)NC1CC1 ... 5.73
9. O=C(Cn1c(C(F)F)cc2cccnc21)NC1CCCC1 ... -22.2
10. CN(Cc1ccco1)Cc1ccccc1CNC(=O)c1ccc[nH]1 ... -4.11
11. Cc1nc2c(c(NCc3ccc(-c4ccccn4)s3)n1)CCNCC2 ... -59.5
12. COc1cc(CN(C)C(=O)NCc2cccc3c2OCO3)ccc1SC ... -6.08
13. Cc1cc(C)n(CC2CCCN2CCS(C)(=O)=O)n1 (stereo not drawn) ... -3.95
14. CN(C)CCN1CCOCC2(CCCN(C(=O)c3cccc(O)c3)C2)C1 (stereo not drawn) ... 11.7
15. CC(C)c1nc(CN(C)C2CCN(CC(F)(F)F)C2)no1 (stereo not drawn) ... -15.8
16. Cc1ccc(O)c(C(=O)NCCS(=O)(=O)Cc2ccccc2)c1 ... 4.57
17. O=C(O)c1csc(S(=O)(=O)Nc2cccc(OC(F)F)c2)c1 ... -2.63
18. Cc1cc(C(=O)N2CCCC(O)(CN3CCCC3)C2)ccc1Cl (stereo not drawn) ... 1.6
19. O=C(CNC(=O)c1cnccn1)Nc1ncc[nH]1 ... -43.4
20. Cn1cc(CN2CCCN(C(=O)c3cc(Cl)cn3C)CC2)cn1 ... -1.63
21. CCc1cnc(CN(C)C(=O)Nc2cnn(CC3CCCO3)c2)s1 (stereo not drawn) ... 4.03
22. CC(C(=O)N1CCOCC1)S(=O)(=O)Cc1noc(C(C)(C)C)n1 (stereo not drawn) ... -14.2
23. CCc1nc(C)sc1CN1CC[C@@](O)(C2CC2)[C@H](C)C1 ... -10.3
24. Cc1cnn(CC2CCCN2C(=O)CCc2nc3ccccc3[nH]2)c1 (stereo not drawn) ... -12.9
25. O=C(Cc1c(F)cccc1Cl)Nc1cc(N2CCOCC2)ncn1 ... 3.36
26. C=Cn1ncc(CN2CCc3nc(-c4ccncc4)nc(O)c3C2)c1C ... -4.45
27. CCOC(=O)N1CCN(c2nc(C)ncc2CC)CC1 ... -61.2
28. CCC(CO)N(Cc1ccccn1)C(=O)c1ccc(CSC)o1 (stereo not drawn) ... -5.06
29. O=C(c1ccc(NC2CC2)nc1)N1CCC(Nc2cccnn2)CC1 ... -12.6
30. CC(NC(=O)NCCCn1cncn1)c1ccccc1Cl (stereo not drawn) ... 3.01
31. Cc1ncc2c(n1)CN(Cc1nc(C)c(C)o1)CC2 ... -4.32
32. Cc1ccc2c(c1)C(=O)CC1(CCN(Cc3ccccc3)CC1)O2 ... 2.81
33. CN(C)Cc1nn(C)c2c1CN(S(=O)(=O)c1ccccc1F)C2 ... 5.6
34. CCN(CC)C(=O)C1CCN(C(=O)Nc2cccnc2OC)CC1 ... 19
35. Cc1cc(C(=O)N2CCN(CC(O)Cn3cccn3)CC2)c(C)o1 (stereo not drawn) ... -4.76
36. CCn1ncc(CN2C[C@@H]3CCCN3C[C@H]2CCSC)c1C ... -19.1
37. CC(C)N(C)C(=O)C1=NOC2(CCN(C(=O)c3ccc(Cl)cc3)C2)C1 (stereo not drawn) ... -16.7
38. Cc1sc(N)nc1-c1ccc(Cl)cc1 ... -2.75
39. CC(O)CNC(=O)Nc1ccc(Br)cc1Br (stereo not drawn) ... -1.45
40. CC(O)CN1CC2(CCC1=O)CCN(C(=O)c1cnn(C)c1)CC2 (stereo not drawn) ... 3.74
41. CC(NC1CCCC1)c1ccccc1-n1cccn1 (stereo not drawn) ... 7.5
42. COc1ccc(OC)c(CN2CCc3nc4ccsc4c(=O)n3CC2)c1 ... 43.5
43. O=C(NCC1(O)CCc2ccccc21)Nc1ccc2c(c1)OCO2 (stereo not drawn) ... -11.2
44. NC(=O)c1cnn2c1NCC(CNCC1(c3ccccc3)CCC1)C2 (stereo not drawn) ... -7.73
45. COc1ccc(F)c(CN2CCCC(O)(CNCC(C)(C)C)C2=O)c1 (stereo not drawn) ... 12.2
46. CC(C)c1noc(CCCC(=O)NC(C)c2ccccn2)n1 (stereo not drawn) ... -4.36
47. O=C1NCCN1C(CNS(=O)(=O)C1CC1)Cc1cccc(F)c1 (stereo not drawn) ... -3.09
48. COCCn1cnnc1Cn1ccnc1-c1ccsc1 ... 8.61
